assay_info: Retention time of the compound
Type: physicochemical
Numbered stars: 1 amine (or outer) side, 2 acyl side, 3 side chain; on linkers, the order of the positions; unused ones are H or OH. Square brackets hold non-standard residues; d marks the D form. Peptide text beside a SMILES is read from it. GABA(3S-Bn) = O=C(C[C@@H](CN[*:1])Cc1ccccc1)[*:2]; GABA(3R-Bn) = O=C(C[C@H](CN[*:1])Cc1ccccc1)[*:2]
Listing: Retention_time of selected molecules
measurement_name: Retention_time (min)

1. CC[C@H](C)[C@@H]1NC(=O)[C@H](CC(C)C)NC(=O)C[C@H](Cc2ccccc2)CNC(=O)C[C@@H](Cc2ccccc2)CNC(=O)[C@@H]2CCCN2C(=O)[C@@H]2CCCN2C(=O)[C@H](C(C)C)NC(=O)[C@H](CC(C)C)NC(=O)[C@H]([C@@H](C)CC)NC1=O (cyclo(IILVPP[GABA(3R-Bn)][GABA(3S-Bn)]L)) | 9.605
2. CC[C@H](C)[C@@H]1NC(=O)[C@H](CC(C)C)NC(=O)C[C@H](Cc2ccccc2)CNC(=O)C[C@H](Cc2ccccc2)CNC(=O)[C@@H]2CCCN2C(=O)[C@@H]2CCCN2C(=O)[C@H](C(C)C)NC(=O)[C@H](CC(C)C)NC(=O)[C@H]([C@@H](C)CC)NC1=O (cyclo(IILVPP[GABA(3S-Bn)][GABA(3S-Bn)]L)) | 10.11
3. CC[C@H](C)[C@H](N)C(=O)N[C@H](C(=O)N[C@@H](CC(C)C)C(=O)N[C@H](C(=O)N1CCC[C@H]1C(=O)N1CCC[C@H]1C(=O)NC[C@H](CC(=O)N[C@@H](Cc1ccccc1)C(=O)N[C@@H](CC(C)C)C(=O)O)Cc1ccccc1)C(C)C)[C@@H](C)CC (H-IILVPP[GABA(3S-Bn)]FL-OH) | 12.69
4. CC[C@H](C)[C@@H]1NC(=O)[C@H](CC(C)C)NC(=O)C[C@@H](Cc2ccccc2)CNC(=O)C[C@H](Cc2ccccc2)CNC(=O)[C@@H]2CCCN2C(=O)[C@@H]2CCCN2C(=O)[C@H](C(C)C)NC(=O)[C@H](CC(C)C)NC(=O)[C@H]([C@@H](C)CC)NC1=O (cyclo(IILVPP[GABA(3S-Bn)][GABA(3R-Bn)]L)) | 10.543
5. CC[C@H](C)[C@H](N)C(=O)N[C@H](C(=O)N[C@@H](CC(C)C)C(=O)N[C@H](C(=O)N1CCC[C@H]1C(=O)N1CCC[C@H]1C(=O)N[C@@H](Cc1ccccc1)C(=O)NC[C@@H](CC(=O)N[C@@H](CC(C)C)C(=O)O)Cc1ccccc1)C(C)C)[C@@H](C)CC (H-IILVPPF[GABA(3R-Bn)]L-OH) | 14.168
6. CC[C@H](C)[C@H](N)C(=O)N[C@H](C(=O)N[C@@H](CC(C)C)C(=O)N[C@H](C(=O)N1CCC[C@H]1C(=O)N1CCC[C@H]1C(=O)NC[C@H](CC(=O)NC[C@H](CC(=O)N[C@@H](CC(C)C)C(=O)O)Cc1ccccc1)Cc1ccccc1)C(C)C)[C@@H](C)CC (H-IILVPP[GABA(3S-Bn)][GABA(3S-Bn)]L-OH) | 13.233
7. CC[C@H](C)[C@@H]1NC(=O)[C@H](CC(C)C)NC(=O)[C@H](Cc2ccccc2)NC(=O)C[C@H](Cc2ccccc2)CNC(=O)[C@@H]2CCCN2C(=O)[C@@H]2CCCN2C(=O)[C@H](C(C)C)NC(=O)[C@H](CC(C)C)NC(=O)[C@H]([C@@H](C)CC)NC1=O (cyclo(FLIILVPP[GABA(3S-Bn)])) | 9.89
8. CC[C@H](C)[C@H](N)C(=O)N[C@H](C(=O)N[C@@H](CC(C)C)C(=O)N[C@H](C(=O)N1CCC[C@H]1C(=O)N1CCC[C@H]1C(=O)NC[C@H](CC(=O)NC[C@@H](CC(=O)N[C@@H](CC(C)C)C(=O)O)Cc1ccccc1)Cc1ccccc1)C(C)C)[C@@H](C)CC (H-IILVPP[GABA(3S-Bn)][GABA(3R-Bn)]L-OH) | 13.938
9. CC[C@H](C)[C@@H]1NC(=O)[C@H](CC(C)C)NC(=O)[C@H](Cc2ccccc2)NC(=O)C[C@@H](Cc2ccccc2)CNC(=O)[C@@H]2CCCN2C(=O)[C@@H]2CCCN2C(=O)[C@H](C(C)C)NC(=O)[C@H](CC(C)C)NC(=O)[C@H]([C@@H](C)CC)NC1=O (cyclo(FLIILVPP[GABA(3R-Bn)])) | 10.033
10. CC[C@H](C)[C@H](N)C(=O)N[C@H](C(=O)N[C@@H](CC(C)C)C(=O)N[C@H](C(=O)N1CCC[C@H]1C(=O)N1CCC[C@H]1C(=O)NC[C@@H](CC(=O)NC[C@@H](CC(=O)N[C@@H](CC(C)C)C(=O)O)Cc1ccccc1)Cc1ccccc1)C(C)C)[C@@H](C)CC (H-IILVPP[GABA(3R-Bn)][GABA(3R-Bn)]L-OH) | 14.073
